Would you mind telling me the reported YAP1 (% UTC) of each entry?
# System: Yap1 mRNA
# test summary: Antisense inhibition of human Yap1 in A-431 cells by cEt gapmers, single dose (Example 3, RTS36584)
# Type: cell-based
# protocol conditions: Table 29; Yap1 mRNA as percent of untreated control; 3-10-3 cEt gapmers targeting SEQ ID NO.: 1, and 2
Strand notation (5' to 3'): a small letter for the sugar, then the base; units joined by * are phosphorothioate-linked, units joined directly phosphodiester-linked; [ ] holds rarer units or linkages, { } end groups; capitals alone tell only the bases. k = constrained ethyl (cEt); [5mC] = 5-methylcytosine; d = 2'-deoxy (DNA)
Answer in % UTC, number only, no unit symbol.

What reported YAP1 (% UTC) corresponds to 1074575 (DNA kA*k[5mC]*kA*dT*dT*dA*dT*dG*dA*dA*d[5mC]*d[5mC]*dT*kA*k[5mC]*kT) [compound 1074575] on Yap1 mRNA?
14

Could you do the same for 1075343 (antisense kA*kA*k[5mC]*dT*dA*dA*dA*dA*dG*dG*dG*dA*dG*kT*kA*kG) [compound 1075343] , please?
89

Could you do the same for 1075055 (antisense k[5mC]*kT*kA*dT*dT*dA*dA*dG*dT*dG*dA*dG*d[5mC]*kT*kT*kT) [compound 1075055] , please?
4

Could you do the same for 1074831 (k[5mC]*kG*kA*dG*dG*dA*dT*dA*dA*dA*dA*dT*d[5mC]*k[5mC]*kA*k[5mC]; antisense) [compound 1074831] , please?
35

----------
# Tested on: Yap1 mRNA
# test summary: Antisense inhibition of human Yap1 in A-431 cells by cEt gapmers, single dose (Example 2, RTS4814)
# Type: cell-based
# protocol conditions: Table 19; A-431 cells, 5,000 cells per well, free uptake, 2,000 nM modified oligonucleotide, approx. 48 hours; RTS4814; normalized to RIBOGREEN; Yap1 mRNA as percent of untreated control
# Procedure: Modified oligonucleotides were designed to target a Yap1 nucleic acid and were tested for their effect on Yap1 mRNA level in vitro. The modified oligonucleotides were tested in a series of experiments that had similar culture conditions. […] After a treatment period of approximately 48 hours, RNA was isolated from the cells and Yap1 mRNA levels were measured by quantitative real-time RTPCR. […] Yap1 mRNA levels were normalized to total RNA content, as measured by RIBOGREEN®. […]
Strand notation (5' to 3'): a small letter for the sugar, then the base; units joined by * are phosphorothioate-linked, units joined directly phosphodiester-linked; [ ] holds rarer units or linkages, { } end groups; capitals alone tell only the bases. k = constrained ethyl (cEt); [5mC] = 5-methylcytosine; d = 2'-deoxy (DNA)
reported endpoint: YAP1 (% UTC)
Answer in % UTC, number only, no unit symbol.

If you can, please state the reported YAP1 (% UTC) value of 1075525 (kT*kT*kA*dA*dT*dT*dA*dA*dG*dG*dG*d[5mC]*d[5mC]*k[5mC]*kA*k[5mC]; antisense) [Compound 1075525] .
130

Could you do the same for 1074501 (kA*k[5mC]*kT*dA*d[5mC]*dA*dA*dT*dA*dA*d[5mC]*d[5mC]*dA*kT*k[5mC]*k[5mC]; antisense) [Compound 1074501] , please?
9

Could you do the same for 1076229 (kA*kA*kT*dT*dA*dA*d[5mC]*d[5mC]*dT*d[5mC]*dA*dG*dT*kG*kA*kG; antisense) [Compound 1076229] , please?
91

Could you do the same for 1074469 (k[5mC]*k[5mC]*k[5mC]*dA*d[5mC]*d[5mC]*dG*dA*d[5mC]*d[5mC]*d[5mC]*dT*dG*k[5mC]*k[5mC]*kA; antisense) [Compound 1074469] , please?
77

Could you do the same for 1076325 (k[5mC]*kT*kA*dA*dT*dA*dA*dT*dG*dG*dA*dA*dG*kA*kG*kT; antisense) [Compound 1076325] , please?
16

Could you do the same for 1074789 (kA*kT*k[5mC]*dA*dA*d[5mC]*d[5mC]*dA*dT*dA*dA*dG*dT*kA*kG*kA; antisense) [Compound 1074789] , please?
17

Could you do the same for 1076005 (kG*kT*kA*d[5mC]*dA*dA*dA*dA*dT*d[5mC]*dT*d[5mC]*d[5mC]*kA*kG*kG; antisense) [Compound 1076005] , please?
69

Could you do the same for 1076357 (kT*k[5mC]*k[5mC]*dA*dA*dA*dA*dA*d[5mC]*dT*dT*d[5mC]*dT*kT*kA*kG; antisense) [Compound 1076357] , please?
22

Could you do the same for 1075013 (antisense k[5mC]*kA*kT*dA*dA*dA*d[5mC]*d[5mC]*d[5mC]*dA*d[5mC]*dT*dT*k[5mC]*kG*kA) [Compound 1075013] , please?
102

Could you do the same for 1076101 (kA*kA*kA*dT*dA*dA*dG*dG*dG*dA*d[5mC]*dT*dA*k[5mC]*kT*kT; antisense) [Compound 1076101] , please?
71

Could you do the same for 1075045 (antisense kA*kA*kA*dT*dT*dA*dG*dA*d[5mC]*dT*d[5mC]*d[5mC]*d[5mC]*k[5mC]*k[5mC]*kA) [Compound 1075045] , please?
18

Could you do the same for 1075461 (antisense k[5mC]*kT*kA*dA*dA*dT*dA*dA*d[5mC]*d[5mC]*dA*dA*dG*kG*kA*kT) [Compound 1075461] , please?
64

Could you do the same for 1074181 (antisense k[5mC]*k[5mC]*k[5mC]*dG*dG*dG*dA*dT*d[5mC]*d[5mC]*dA*dT*dG*kG*k[5mC]*kT) [Compound 1074181] , please?
107

Could you do the same for 1075269 (antisense kT*kT*kA*dT*dT*dA*dA*d[5mC]*d[5mC]*dT*dG*dG*dA*kG*kA*kG) [Compound 1075269] , please?
13

Could you do the same for 1074213 (antisense kG*kA*kG*dT*d[5mC]*dG*dG*dG*d[5mC]*dA*dG*d[5mC]*dT*kT*k[5mC]*k[5mC]) [Compound 1074213] , please?
55

Could you do the same for 1076549 (antisense kG*kT*kG*d[5mC]*dA*dA*dA*dA*dT*dA*d[5mC]*d[5mC]*dT*kT*kT*kG) [Compound 1076549] , please?
8

Could you do the same for 1076453 (kG*kT*kA*dA*dT*dA*dT*dT*dG*d[5mC]*dA*dA*dT*k[5mC]*kT*kG) [Compound 1076453] , please?
1
